- Assay Target: Dickkopf-related protein 1 (Homo sapiens)
- Experiment Notes: small molecules binding DKK1 protein – biochemical, small-molecule microarray, 635 nm fluorescence scan, primary screen (AID 1106);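 also: score merges emission near 667 nm with signal to noise over three replicate slides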
- Measurement Conditions: higher = more signal
// class assignment uses composite z-score with these ranges: low: < -0.1; moderate: ≥ -0.1 and < 0.2; high: ≥ 0.2

1) COc1ccccc1CN1C(=O)c2ccccc2[C@@H](C(=O)NCC(C)C)[C@@H]1c1ccc(CO)cc1 : high
2) CN(C)C(=O)[C@@]1(CCC(=O)OC(C)(C)C)N=C(c2ccc(OCCCO)cc2)O[C@H]1c1ccccc1N=[N+]=[N-] : high
3) CCCC=C(CCC)[C@@H](NC(=O)Cc1ccccc1)c1ccc(C(=O)OC)cc1 : low
4) OCCCC1=CC(c2cccs2)N(Cc2cccc(OC(F)(F)F)c2)CC1 (stereo not drawn) : moderate
5) COC(=O)[C@@]1(Cc2ccc(F)cc2)[C@@H]2[C@@H](CC(=O)[C@H]2CC(=O)C(=O)N2CCCC2)CN1C(=O)c1ccccc1 : moderate
6) CC(C)(C)OC(=O)CC[C@@]1(C(=O)N2CCCCC2)N=C(c2ccc(OCCCO)cc2)O[C@@H]1c1ccccc1N=[N+]=[N-] : low
7) C=CC[C@@]1(C(=O)NCC(O)CO)N=C(c2ccc(OCCCO)cc2)O[C@@H]1c1ccccc1 (stereo partly drawn) : low
8) CC(=O)NCCCC[C@@H]1NC(=O)[C@H]2C[C@@H](C(=O)NCCCCCN)[C@@H](c3cccc(OCCO)c3)N2C1=O : moderate
9) C=CCC(OC(C)=O)[C@@H]1[C@@H](N(Cc2cc3ccccc3o2)C(=O)Cc2ccc(OC)cc2)c2cc(OCCCO)ccc2N1C(=O)c1ccc(-c2ccccc2)cc1 (stereo partly drawn) : low
10) COc1ccc([Si](C)(C)[C@@H]2[C@@H](CC(=O)N(CCO)Cc3ccccc3)O[C@]3(C(=O)N(C)c4c(Br)cc(C)cc43)[C@H]2C)cc1 : high
11) C=CCC(OC(C)=O)[C@@H]1[C@@H](N(Cc2ccc(-c3cccc(C(F)(F)F)c3)o2)C(=O)c2cccc3ccccc23)c2cc(OCCCO)ccc2N1C(=O)c1ccc(-c2ccccc2)cc1 (stereo partly drawn) : high
12) NC(=O)NCC#Cc1ccc2c(c1)[C@]1(C(=O)N2)[C@H](c2ccc(OCCO)cc2)N2[C@H](c3ccccc3)[C@H](c3ccccc3)OC(=O)[C@H]2[C@@H]1C(=O)N1CCCCCCC1 : high
13) C[N+](C)(C)CCCC[C@@H]1NC(=O)[C@@H]2C[C@H](C(=O)NCCCCCNC(=O)CS)[C@H](c3cccc(OCCO)c3)N2C1=O : high
14) COCCCNC(=O)[C@]1(CCS(=O)(=O)c2ccccc2)N=C(c2ccc(OCCCO)cc2)O[C@@H]1c1ccccc1 : moderate
15) CC1CC/C=C\[C@H]2OC34C=CCN(c5ccc(Cl)cc5)C(=O)[C@H]3N(C(CO)C(C)C)C(=O)[C@]4(C)C2C(=O)O1 (stereo partly drawn) : low
16) COc1ccc(C#Cc2ccc3c(c2)[C@]2(C(=O)N3)[C@H](C(N)=O)[C@H]3C(=O)O[C@H](c4ccccc4)[C@H](c4ccccc4)N3[C@@H]2c2ccc(O)cc2)cc1 : moderate
17) C=CCC(OC(C)=O)[C@@H]1[C@@H](N(Cc2cccc3ccccc23)C(=O)Cc2ccc(F)cc2)c2cc(OCCCO)ccc2N1C(=O)Cc1ccc(OC)cc1 (stereo partly drawn) : moderate
18) COC(=O)C(CC#Cc1ccc2c(c1)[C@]1(C(=O)N2)[C@H](c2ccc(O)cc2)N2[C@H](c3ccccc3)[C@H](c3ccccc3)OC(=O)[C@H]2[C@@H]1C(=O)O)C(=O)OC : low
19) COc1ccc([Si](C)(C)[C@H]2[C@H](CCO)O[C@@]3(C(=O)N(Cc4cccc(N5CCOC5=O)c4)c4ccccc43)[C@@H]2C)cc1 : high
20) COC(=O)[C@@]1(Cc2ccc(F)cc2)[C@H]2c3cc(C(=O)N(C)C)n(Cc4ccc(C)c(F)c4F)c3C[C@H]2CN1C(=O)c1ccccc1 : low
21) COC(=O)[C@@]1(Cc2ccc(F)cc2)[C@H]2c3cc(C(=O)N4CCCC4)n(Cc4ccccc4)c3C[C@H]2CN1C(=O)c1ccccc1 : low
22) O=C(O)[C@@]1(Cc2ccccc2)COC(c2ccc(OCCCO)cc2)=N1 : low
23) COC(=O)[C@@]1(Cc2ccccc2)[C@H]2c3cc(C(=O)N4CCCC4)n(Cc4ccc(OC(F)(F)F)cc4)c3C[C@H]2CN1C(=O)c1ccccc1 : low
24) NC(=O)NCC#Cc1ccc2c(c1)[C@]1(C(=O)N2)[C@H](c2ccc(O)cc2)N2[C@H](c3ccccc3)[C@H](c3ccccc3)OC(=O)[C@H]2[C@@H]1C(N)=O : low
25) C[C@@]1([C@@H](NC(=O)c2cccs2)c2ccc(-c3ccccc3)cc2)C[C@H]1C1CCCCC1 : moderate
26) C[N+](C)(C)CCCC[C@@H]1NC(=O)[C@H]2C[C@@H](C(=O)NCCCCCCN)[C@@H](c3cccc(OCCO)c3)N2C1=O : high
27) O=C1CSC(c2cccc([N+](=O)[O-])c2)N1c1ccccc1 (stereo not drawn) : high

* * *

- Experiment Notes: resazurin metabolic signal in A549 cells – cell-based, resazurin fluorescence, 24 h, PK04 Diversity Set, profiling panel (AID 1171); also: test concentration not given here
- Measurement Conditions: A549 viability, higher = more signal, called active from +8 up or from −8 down
Calls of active or inactive are those of the source.
Assay Metric: z-score

1. COC(=O)[C@@]1(Cc2ccc(OC)cc2)[C@H]2c3cc(C(=O)N4CCCC4)n(CCc4ccc(O)c(OC)c4)c3C[C@H]2CN1C(=O)c1ccccc1 : 1.05 (inactive)
2. C[C@]12C(=O)N(CCCO)[C@@H]3C(=O)N(c4ccc(Cl)cc4)CC=CC31O[C@@H]1/C=C\CCCOC(=O)C12 (stereo not given in full) : -0.0576 (inactive)
3. COc1ccc(C(=O)Nc2ccc(CN3C(=O)[C@]4(O[C@H](CCn5cc([C@H](O)c6ccccc6)nn5)[C@@H]([Si](C)(C)c5ccc(OC)cc5)[C@@H]4C)c4ccccc43)cc2)cc1 : -1.64 (inactive)
4. CCCC[C@@H](O)C1=C(COc2ccccc2)Cn2c(=O)n(-c3ccccc3)c(=O)n2[C@H]1CO : -0.515 (inactive)
5. C=C(/C(=C/C[C@@H](OC(C)=O)c1ccccc1OCCO)c1cnc2ccccc2c1)C(C)C : -0.945 (inactive)
6. Cc1ccc(S[C@]2(C(=O)O)CC(=O)N(Cc3ccccc3C(F)(F)F)[C@@H]2c2ccc(CO)cc2)cc1 : 0.142 (inactive)
7. CCCC=C(CCC)[C@@H](NC(=O)Cc1ccccc1)c1ccc(C(=O)OC)cc1 : -0.712 (inactive)
8. O=C1C2C=CC(C(O)c3ccc(Br)cc3)N(Nc3ccccc3)C2C(=O)N1c1ccccc1 (stereo not given) : -0.201 (inactive)
9. CC1(C)[C@@H]2CC(C(O)C3C=CC4C(=O)N(c5ccccc5)C(=O)C4N3Nc3ccccc3F)=C[C@@H]1C2 (stereo not given in full) : 1.01 (inactive)
10. CC(C)c1ccc(NN2C(C(O)c3ccccn3)C=CC3C(=O)N(c4ccccc4)C(=O)C32)cc1 (stereo not given) : -0.943 (inactive)
11. COC(=O)C(CC#Cc1ccc2c(c1)[C@]1(C(=O)N2)[C@H](c2ccc(O)cc2)N2[C@H](c3ccccc3)[C@H](c3ccccc3)OC(=O)[C@H]2[C@@H]1C(N)=O)C(=O)OC : 1.42 (inactive)
12. N#Cc1ccc(NN2C(C(O)c3ccco3)C=CC3C(=O)N(c4ccccc4)C(=O)C32)cc1 (stereo not given) : -0.2 (inactive)
13. O=C1O[C@H](c2ccccc2)[C@H](c2ccccc2)N2[C@H]1[C@@H](C(=O)N1CCCCCCC1)[C@]1(C(=O)Nc3ccccc31)[C@H]2c1ccc(O)cc1 : -1.52 (inactive)
14. O=C1OCCC=C[C@H]2OC34C=CCN(Cn5nnc6ccccc65)C(=O)[C@H]3N(CCCCCO)C(=O)[C@@H]4C12 (stereo not given in full) : -0.605 (inactive)
15. CCCC=C(CCC)[C@@H](NS(=O)(=O)CC)c1ccccc1 : 0.677 (inactive)

* * *

- Experiment Notes: changes in parasitized red cell lysis, either direction – P. falciparum Indochina, OD700, 3 h, PSAC antagonist project, primary screen (AID 1156)
- Measurement Conditions: P. falciparum-infected erythrocytes, osmotic lysis, higher = more signal, called active from +8 up or from −8 down
Each record's class is read off its z-score using these ranges: Low = under -0.06, Medium = from -0.06 up to 1, High = 1 and over

1) CCOC(=O)C[C@H]1[C@H](OC(=O)c2cc3ccccc3oc2=O)[C@@H](NC(=O)c2ccc3ccccc3n2)c2cc(OCCCO)ccc2N1C(=O)c1ccc2ccccc2n1 : High
2) C=CCC(OC(C)=O)[C@@H]1[C@@H](N(Cc2cccc3ccccc23)C(=O)Cc2ccc(F)cc2)c2cc(OCCCO)ccc2N1C(=O)Cc1ccc(OC)cc1 (stereo partly drawn) : Low
3) C/C=C/[C@@H](CCn1cc([C@H](O)c2ccccc2)nn1)[Si](C)(C)c1ccc(OC)cc1 : High
4) CC(C)C[C@@H]1NC(=O)[C@@H]2C[C@H](C(=O)NCCCC[N+](C)(C)C)[C@H](c3cccc(OCCO)c3)N2C1=O : Low
5) O=C1OCCC=C[C@H]2OC34C=CCN(Cn5nnc6ccccc65)C(=O)[C@H]3N(CCCCCO)C(=O)[C@@H]4C12 (stereo partly drawn) : High
6) O=C1c2ccccc2C(=O)C2CC([C@H]3Oc4ccccc4S(=O)(=O)N4CCC[C@@H]34)=CCC12 (stereo partly drawn) : Medium
7) C[C@]12C(=O)N(CCCO)[C@@H]3C(=O)N(c4ccc(Cl)cc4)CC=CC31O[C@@H]1/C=C\CCCOC(=O)C12 (stereo partly drawn) : Low
8) CN(C)CCCC[C@@H]1NC(=O)[C@H]2C[C@@H](C(=O)NCCCCCCNC(=O)CS)[C@@H](c3ccc(O)cc3)N2C1=O : High
9) CO[C@H]1O[C@H](CO)[C@@H](OC(=O)Nc2ccc(C(F)(F)F)cc2)[C@H](OC(=O)Nc2ccccc2)[C@H]1OC(=O)Nc1ccccc1 : Low
10) COc1ccc(C#Cc2ccc3c(c2)[C@]2(C(=O)N3)[C@H](C(N)=O)[C@H]3C(=O)O[C@H](c4ccccc4)[C@H](c4ccccc4)N3[C@@H]2c2ccc(O)cc2)cc1 : Medium
11) C=CCC(OC(C)=O)[C@@H]1[C@@H](N(Cc2ccc(-c3ccccc3)cc2)C(=O)Cc2ccc(OC)cc2)c2cc(OCCCO)ccc2N1C(=O)c1ccc(-c2ccccc2)cc1 (stereo partly drawn) : Medium
12) C[N+](C)(C)CCCC[C@@H]1NC(=O)[C@@H]2C[C@H](C(=O)O)[C@H](c3cccc(OCCO)c3)N2C1=O : Low
13) COCCOC(=O)N1C(=O)[C@@]2(c3cc(C#CCNC(N)=O)ccc31)[C@H](C(=O)N1CCCCCCC1)[C@H]1C(=O)O[C@H](c3ccccc3)[C@H](c3ccccc3)N1[C@@H]2c1ccc(OCCO)cc1 : High
